Reference source for all entries: patent US20240109974A1

# target: T1, Cynomolgus TNFR2-His (Sino 90102-C08H) (cynomolgus monkey, UniProt A0A2K5VET2 132-366)
# T1 construct: Bought protein; also called cynomolgus monkey TNFR2; recombinant cynomolgus monkey TNFR2 protein; not shown: His tag
# T1 sequence: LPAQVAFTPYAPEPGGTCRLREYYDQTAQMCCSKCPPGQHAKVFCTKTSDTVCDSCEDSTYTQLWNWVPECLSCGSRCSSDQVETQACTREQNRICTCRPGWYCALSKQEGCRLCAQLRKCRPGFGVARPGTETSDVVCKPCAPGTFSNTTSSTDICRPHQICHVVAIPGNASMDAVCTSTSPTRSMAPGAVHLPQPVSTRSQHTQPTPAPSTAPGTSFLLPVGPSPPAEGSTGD
# test.protocol: SPR (Biacore T200), antibody captured on Protein A chip
# Experimental: Biacore was used to detect the specific binding of a test anti-TNFR2 antibody to human and cynomolgus monkey TNFR2 proteins. In this experiment, a Protein A chip was used, the time required for the chip to capture the diluted antibody was determined by manual run, so that the Rmax of the saturated binding to an antigen was 50 RU. […] The affinity of an antibody for an antigen was determined by using multi-cycle dynamics. […]
assay.readout: kon (M⁻¹ s⁻¹)
The reply should contain only the number, in M⁻¹ s⁻¹.

Study these solved cases before continuing.
{"binder": "219-WT (antibody, V domains shown, Human-murine chimeric wild-type molecule) VH: EVQLQESGAELVRPGASVKLSCKASGYSFTNYWMNWVKQRPGQGLEWIGMIHPSDTETRLNQNFKDKATLTVDKSSSTSYMQLSSPTSEDSAVYYCARGEGLGAARSVSMDYWGQGTTVTVSS VL: DILMTQSPSSLSASLGDRVTISCRASQDISNYLNWYQQKPDGTVKVLIYYTAILHSGVPSRFSGSGSGTDYSLTISNLEQEDIATYFCQQGNTLPWTFGGGTKLEIK", "quantity.unit": "M⁻¹ s⁻¹", "kon": 492000}
{"binder": "224-Hu3 (antibody, V domains shown, Humanized form of #224; also called VH9 + VL8) VH: QVQLVQSGSELKKPGASVKVSCKASGFNNKDIYMHWVRQAPGQGLEWMGRIDPATGNTKHDPKFQDKAVLSSDTSVSTAYLQISSLKAEDTAVYYCARSPYGDFGAMDYWGQGTLVTVSS VL: DIQMTQSPSSLSASVGDRVTITCTASSSVSSNYLHWYQQKPGKAPKLLIYSTSNLPSGVPSRFSGSGSGTDFTLTISSLQAEDAATYYCHQYHRSPWTFGQGTKVEIK", "quantity.unit": "M⁻¹ s⁻¹", "kon": 285000}

// moving on: another record for kon
Enquiry: Output kon of 001-Hu5 (antibody, V domains shown, Humanized form of #001; also called VH1 + VL4) VH: EVQLVESGGGLVQPGGSLRLSCAASGFAFSTYDLSWVRQAPGKGLEWVAYINNGGISTYYSDTVKGRFTISRDNAKNTLYLQMNSLRAEDTAVYYCVRGPFYGSANYFDYWGQGTLVTVSS VL: DIQMTQSPSSLSASVGDRVTITCRTSESIYSNLPWYQQKPGKSPKLLVYDATKLAEGVPSRFSGSGSGTDYTLTISSLQPEDFATYYCQHFWVTPWTFGQGTKVEIK
Return: 369000
